Attribute: cytotoxicity at 70.5 h
experiment: Human HepG2 cell viability assay in 384 well format; type: toxicity, cell-based; set-up: dose 125 nL, time 70.5 hour; concentration not given beside the values; details: HepG2 cells, read-out: Inhibition
Record the value in %, omitting the unit from your answer.

O=C(c1ccc(N2CCCC2)nn1)N1CCCc2ccc(F)cc21    8.25
COc1ccsc1C(=O)N1CCCC1c1c(C)nn(C)c1OC (centres undefined)    -4.7
Cc1cc(CN2CCN(C(C)c3nc(C4CC4)no3)CC2)no1 (centres undefined)    -4.52
Cc1cccc(C(C(=O)NCC2(O)CCCCC2)N(C)C)c1 (centres undefined)    14.2
CCc1nc(CN2CCCN(C(=O)CCOC(C)C)CC2)cs1    0.154
COC(=O)c1cccn1C1CCN(C(=O)c2cn[nH]c2C)CC1    -1.46

Q: I'd like to know its cytotoxicity at 70.5 h. The molecule in question is O=C1CC2(CCCC2)CC(=O)N1Cc1nccs1
Result: -1.44

Q: I'd like to know its cytotoxicity at 70.5 h. The molecule in question is CCCS(=O)(=O)N1C[C@@H]2CN(Cc3ccco3)CCO[C@@H]2C1
Result: -2.23

Q: I'd like to know its cytotoxicity at 70.5 h. The molecule in question is CC1(C)OC(=O)N(CCCC(=O)c2ccc(F)cc2)C1=O
Result: -16.8

Q: I'd like to know its cytotoxicity at 70.5 h. The molecule in question is Cn1nc(CN2CCOCC2)c2c1CN(C(=O)c1ccc[nH]1)C2
Result: 0.563

Q: I'd like to know its cytotoxicity at 70.5 h. The molecule in question is O=C(c1cccnc1N1CCCCC1)N1CCCC(n2cccn2)C1 (centres undefined)
Result: 15.6

Q: I'd like to know its cytotoxicity at 70.5 h. The molecule in question is O=C(NC1CCC1)c1cccc(S(=O)(=O)NCc2nc(C3CC3)no2)c1
Result: 6.45

Q: I'd like to know its cytotoxicity at 70.5 h. The molecule in question is NC(=O)CN(CC1CCOC1)C1CC1 (centres undefined)
Result: -2.08

---

test: Human HepG2 cell viability assay in 384 well format; type: toxicity, cell-based; design: dose 125 nL, time 70.5 hour; concentration not given beside the values; conditions: HepG2 cells, read-out: Inhibition
Attribute: cytotoxicity at 70.5 h
Record the value in %, omitting the unit from your answer.

CN(Cc1ccc([S+](C)[O-])cc1)c1ccccn1 (stereo not drawn)    -10.9
CC(C)Cc1noc(CN2CCN(C(=O)c3ccccc3F)CC2)n1    13.7

Q: I'd like to know its cytotoxicity at 70.5 h. The molecule in question is CC(C(=O)N1CCCC1)N1CCC(c2nccn2CC2CCC2)CC1 (stereo not drawn)
Result: -4.27

---

assay: Human HepG2 cell viability assay in 384 well format; type: toxicity, cell-based; set-up: dose 125 nL, time 70.5 hour; concentration not given beside the values; conditions: HepG2 cells, read-out: Inhibition
endpoint: cytotoxicity at 70.5 h (%)
Record the value in %, omitting the unit from your answer.

# count of solved cases: 5
CCCc1noc(CN2CCCC2c2c(C)nn(C)c2OC)n1 (stereo not drawn)    -7.09
CCC(CO)NCc1ccc(-c2ccccc2)o1 (stereo not drawn)    29.3
O=C(CCOc1cccc(F)c1)N1CCCC1Cn1cccn1 (stereo not drawn)    -0.422
Cc1nc(NCc2ccccc2)cc(C(C)Cn2nc(C)c(C)c2C)n1 (stereo not drawn)    3.51
COc1cccc(C(=O)NC(C)CCN2CCOCC2)c1F (stereo not drawn)    -5.81

Q: I'd like to know its cytotoxicity at 70.5 h. The molecule in question is O[C@@]1(CNCC2(Cn3cccn3)CC2)CCCN2CCCC[C@@H]21
Result: -11.3

Q: I'd like to know its cytotoxicity at 70.5 h. The molecule in question is CN1CCn2c(-c3cccc(F)c3)cnc2C12CCN(CC1CC1)CC2
Result: 4.4

---

assay: Human HepG2 cell viability assay in 384 well format; format: toxicity, cell-based; parameters: dose 125 nL, time 70.5 hour; concentration not given beside the values; conditions: HepG2 cells, read-out: Inhibition
Attribute: cytotoxicity at 70.5 h
Record the value in %, omitting the unit from your answer.

# count of solved cases: 4
O=C(c1cnco1)N1C[C@@H](O)[C@H](Oc2cccc(F)c2)C1    14.4
CCNC(=O)CN1CCSC2(CCCCC2)C1    -11.1
Cc1ccccc1C(=O)NC(C)CN1CCOC1=O (configuration not stated)    -3.59
CC(C)N(C)C(=O)CN1C(=O)OC[C@@H]1c1ccccc1    0.286

Q: I'd like to know its cytotoxicity at 70.5 h. The compound in question is O=C(c1ccnnc1)N1C[C@H]2CCC[C@@H](OCc3cccnc3)[C@@H]2C1
Result: -3.26

Q: I'd like to know its cytotoxicity at 70.5 h. The compound in question is COc1cccc(C(=O)Nc2ccc(OC3CCN(C)CC3)cc2)c1
Result: -4.5

Q: I'd like to know its cytotoxicity at 70.5 h. The compound in question is CC(C)c1nc(C2CCCN2CCNS(C)(=O)=O)no1 (configuration not stated)
Result: -19.2

---

assay: Human HepG2 cell viability assay in 384 well format; assay type: toxicity, cell-based; design: dose 125 nL, time 70.5 hour; concentration not given beside the values; conditions: HepG2 cells, read-out: Inhibition
endpoint: cytotoxicity at 70.5 h (%)
Record the value in %, omitting the unit from your answer.

Cc1noc(C)c1C(=O)NCC(c1cccc(F)c1)N(C)C (configuration not stated)    -4.95
CCN(Cc1cccc(F)c1)Cc1nc2c(cnn2C)c(=O)[nH]1    14.7

Q: I'd like to know its cytotoxicity at 70.5 h. The molecule in question is Cc1cc(C[C@@H]2COC[C@@H]2NC(=O)CN2CCOC2=O)on1
Result: -7.96

Q: I'd like to know its cytotoxicity at 70.5 h. The molecule in question is Cc1ccc(CNC(C)c2ccc(OCC(=O)NC3CC3)cc2)o1 (configuration not stated)
Result: -1.22

Q: I'd like to know its cytotoxicity at 70.5 h. The molecule in question is Cn1cc(CN2CC[C@]3(C[C@H](OCc4ccccn4)CO3)C2)cn1
Result: -22.4

Q: I'd like to know its cytotoxicity at 70.5 h. The molecule in question is CC(C)c1noc(CCC(=O)Nc2cc(F)ccc2F)n1
Result: 12.9

Q: I'd like to know its cytotoxicity at 70.5 h. The molecule in question is CC(C)[C@H]1CN(c2ccnc(N)n2)C[C@@H]1NC(=O)C1(C#N)CCOCC1
Result: -9.5

Q: I'd like to know its cytotoxicity at 70.5 h. The molecule in question is CC(C)N(C)Cc1cnc2n1CCN(Cc1ccsc1)C2
Result: -8.42

Q: I'd like to know its cytotoxicity at 70.5 h. The molecule in question is N#Cc1ccccc1CN(CC(N)=O)C1CCCC1
Result: -7.95

Q: I'd like to know its cytotoxicity at 70.5 h. The molecule in question is CCC(C)NC(=O)CCc1ccc(OCC(F)(F)F)c(OC)c1 (configuration not stated)
Result: -14.7

Q: I'd like to know its cytotoxicity at 70.5 h. The molecule in question is COc1ccc(C(=O)COc2coc(CN3CCSCC3)cc2=O)cc1
Result: -19.9

Q: I'd like to know its cytotoxicity at 70.5 h. The molecule in question is CNC(=O)c1ccc(OC)c(NCc2noc(-c3ccsc3)n2)c1
Result: -11.3

Q: I'd like to know its cytotoxicity at 70.5 h. The molecule in question is CCCc1cc(CNc2cc(CCC)nc3ccnn23)on1
Result: 13.7

Q: I'd like to know its cytotoxicity at 70.5 h. The molecule in question is CN1CC[C@H]2[C@H](C[C@@H](CN3CCCC3)N2c2nccs2)C1
Result: -3.73

Q: I'd like to know its cytotoxicity at 70.5 h. The molecule in question is O=C1OCCN1CC(=O)N1C[C@H]2CC[C@@H]1CN(Cc1cscn1)C2
Result: 27.8

Q: I'd like to know its cytotoxicity at 70.5 h. The molecule in question is COc1ccc(-c2cc(C3(O)CCN(C)CC3)on2)cc1
Result: -0.517

Q: I'd like to know its cytotoxicity at 70.5 h. The molecule in question is O=C(NCCc1ccccn1)Nc1cc(C(F)(F)F)c[nH]c1=O
Result: -2.62

Q: I'd like to know its cytotoxicity at 70.5 h. The molecule in question is Cc1nsc(N2CCCN(C(=O)CCc3ccsc3)CC2)n1
Result: -2

Q: I'd like to know its cytotoxicity at 70.5 h. The molecule in question is Cc1csc(N2CCN(C(=O)CCn3cncn3)CC2)n1
Result: -7.97

Q: I'd like to know its cytotoxicity at 70.5 h. The molecule in question is O=C(c1cccc2c1OCO2)N1CCCC1Cn1cccn1 (configuration not stated)
Result: -8.17

Q: I'd like to know its cytotoxicity at 70.5 h. The molecule in question is c1cnc(N2CCC3(CCN(CC4CC4)CC3)CC2)nc1
Result: -15.1

// provenance: ChEMBL document CHEMBL3507680
